System: SLP-76 phosphorylation in human whole blood monocytes
methodSummary: FcR stimulation-induced SLP-76 phosphorylation in human whole blood monocytes
Assay type: cell-based
assayContext: Monocyte, 5 min, anti CD32 stimulation 5 min, flow cytometry, read-out: Fc Recepor stimulation induced SLP-76 phosphorylation in human whole blood monocytes, IC50
propertyMeasured: pIC50
Scale for pIC50: -log10 of concentration given in mol/L; no unit attached.

response.value for NC(=O)c1nnc(N[C@@H]2CCCC[C@@H]2N)nc1Nc1cccc2[nH]ccc12 (field: pIC50) = 6.75

response.value for NC(=O)c1nnc(N[C@@H]2CCCC[C@@H]2N)nc1Nc1cccc2[nH]ncc12 (field: pIC50) = 6.17

response.value for Cc1c[nH]c2c(Nc3nc(N[C@@H]4CCCC[C@@H]4N)nnc3C(N)=O)cc(F)cc12 (field: pIC50) = 6.31

response.value for Cn1ncc2c(Nc3nc(N[C@@H]4CCCC[C@@H]4N)nnc3C(N)=O)cccc21 (field: pIC50) = 6.29

response.value for NC(=O)c1nnc(N[C@@H]2CCCC[C@@H]2N)nc1Nc1cccc2cc[nH]c12 (field: pIC50) = 6.42

response.value for Cn1cc2c(Nc3nc(N[C@@H]4CCCC[C@@H]4N)nnc3C(N)=O)cccc2n1 (field: pIC50) = 6.40

response.value for NC(=O)c1ncc(N[C@@H]2CCCC[C@@H]2N)nc1Nc1cccc2cc[nH]c12 (field: pIC50) = 6.51

response.value for Cc1c[nH]c2c(Nc3nc(N[C@@H]4CCCC[C@@H]4N)nnc3C(N)=O)cccc12 (field: pIC50) = 6.35

response.value for NC(=O)c1nnc(N[C@@H]2CCCC[C@@H]2N)nc1Nc1cc(F)cc2cc[nH]c12 (field: pIC50) = 6.25

response.value for Cc1c[nH]c2c(Nc3nc(N[C@@H]4CCCC[C@@H]4N)cnc3C(N)=O)cccc12 (field: pIC50) = 6.22

* * *

Listed here: compounds with reported IC50 for Syk (2-635) (KSYK_HUMAN, P43405) (Homo sapiens).
Reply with just the number (in nM).

response.value for NC(=O)c1nnc(N[C@@H]2CCCC[C@@H]2N)nc1Nc1cccc2cc[nH]c12 (field: IC50) = 23

response.value for Cc1c[nH]c2c(Nc3nc(N[C@@H]4CCCC[C@@H]4N)nnc3C(N)=O)cccc12 (field: IC50) = 3.5

response.value for Cn1ccc2c(Nc3nc(N[C@@H]4CCCC[C@@H]4N)cnc3C(N)=O)cccc21 (field: IC50) = 0.5

response.value for NC(=O)c1nnc(N[C@@H]2CCCC[C@@H]2N)nc1Nc1cc(F)cc2cc[nH]c12 (field: IC50) = 4.6

response.value for NC(=O)c1nnc(N[C@@H]2CCCC[C@@H]2N)nc1Nc1cccc2c(Cl)c[nH]c12 (field: IC50) = 11

response.value for Cc1c[nH]c2c(Nc3nc(N[C@@H]4CCCC[C@@H]4N)cnc3C(N)=O)cccc12 (field: IC50) = 1

response.value for Cc1c[nH]c2c(Nc3nc(N[C@@H]4CCCC[C@@H]4N)nnc3C(N)=O)cc(F)cc12 (field: IC50) = 0.8

response.value for NC(=O)c1nnc(N[C@@H]2CCCC[C@@H]2N)nc1Nc1cccc2[nH]ccc12 (field: IC50) = 1

* * *

systemUnderTest: hERG channel (Homo sapiens, UniProt Q12809)
Construct: host or cells: HEK293
Sequence (Q12809 whole entry): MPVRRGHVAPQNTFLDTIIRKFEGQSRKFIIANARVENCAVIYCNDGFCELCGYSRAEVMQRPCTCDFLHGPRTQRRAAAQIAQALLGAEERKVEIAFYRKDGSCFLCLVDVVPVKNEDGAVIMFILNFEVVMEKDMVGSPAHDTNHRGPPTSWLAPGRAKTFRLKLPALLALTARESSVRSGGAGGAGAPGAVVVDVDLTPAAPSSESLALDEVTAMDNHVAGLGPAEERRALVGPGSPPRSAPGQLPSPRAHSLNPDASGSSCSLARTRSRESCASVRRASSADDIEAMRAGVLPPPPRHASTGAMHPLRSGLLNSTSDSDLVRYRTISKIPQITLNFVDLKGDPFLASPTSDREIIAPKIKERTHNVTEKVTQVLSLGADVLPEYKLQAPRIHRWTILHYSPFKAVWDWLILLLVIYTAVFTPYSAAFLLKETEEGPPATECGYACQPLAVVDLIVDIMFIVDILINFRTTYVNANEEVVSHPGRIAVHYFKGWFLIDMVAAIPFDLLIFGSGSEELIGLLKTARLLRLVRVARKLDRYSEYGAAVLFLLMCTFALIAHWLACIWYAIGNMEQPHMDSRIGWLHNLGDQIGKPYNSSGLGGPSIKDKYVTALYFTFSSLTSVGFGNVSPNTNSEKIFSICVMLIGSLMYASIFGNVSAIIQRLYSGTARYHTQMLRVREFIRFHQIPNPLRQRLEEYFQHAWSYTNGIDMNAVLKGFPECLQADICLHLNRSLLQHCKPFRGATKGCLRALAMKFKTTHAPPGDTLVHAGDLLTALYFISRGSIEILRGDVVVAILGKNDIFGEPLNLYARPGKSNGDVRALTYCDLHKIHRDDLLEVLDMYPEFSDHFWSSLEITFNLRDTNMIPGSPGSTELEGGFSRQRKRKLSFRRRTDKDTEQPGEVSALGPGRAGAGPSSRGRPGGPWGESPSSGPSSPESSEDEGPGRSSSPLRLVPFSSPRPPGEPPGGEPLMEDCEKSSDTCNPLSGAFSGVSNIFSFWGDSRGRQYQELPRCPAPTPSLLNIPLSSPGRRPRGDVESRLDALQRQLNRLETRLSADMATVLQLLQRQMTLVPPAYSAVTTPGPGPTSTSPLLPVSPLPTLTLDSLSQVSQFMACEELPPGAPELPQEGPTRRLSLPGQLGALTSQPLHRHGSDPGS
methodSummary: Inhibition of the hERG channel (manual patch clamp assay)
Format: cell-based
assayContext: HEK293 cells stably transfected with hERG cDNA, at 30 uM, whole-cell patch clamp, tail current
Can you tell me inhibition at 9 min, 30 µM for the items I'm about to list?
Reply with just the number (in %).

response.value for Cc1c[nH]c2c(Nc3nc(N[C@@H]4CCCC[C@@H]4N)nnc3C(N)=O)cccc12 [Example 1.3] (field: inhibition at 9 min, 30 µM) = 74

response.value for NC(=O)c1nnc(N[C@@H]2CCCC[C@@H]2N)nc1Nc1cccc2cc[nH]c12 [Example 1.1] (field: inhibition at 9 min, 30 µM) = 12
